Values were extracted from ChEMBL document CHEMBL1649258.

Tested on: Escherichia coli
Assay: Antibacterial activity against wild-type Escherichia coli AG100 harboring IS186 insertion in lon3 gene and Tn5 insertion in ycgE gene at 26 degC by Etest method
Format: functional
attribute measured: MIC (µg/mL)

> print(dat)
                               query.smiles  endpoint.result
1  CN(C)[C@@H]1C(O)=C(C(N)=O)C(=O)[C@@]2(O)C(O)=C3C(=O)c4c(O)cccc4[C@@](C)(O)[C@H]3C[C@@H]12                2
2           CCn1cc(C(=O)O)c(=O)c2ccc(C)nc21              3.3
3  C[C@H]1c2cccc(O)c2C(=O)C2=C(O)[C@]3(O)C(=O)C(C(N)=O)=C(O)[C@@H](N(C)C)[C@@H]3[C@@H](O)[C@@H]21.O                2
4  CC1(C)S[C@@H]2[C@H](NC(=O)[C@H](N)c3ccccc3)C(=O)N2[C@H]1C(=O)O              1.8
5  CO[C@@]1(NC(=O)Cc2cccs2)C(=O)N2C(C(=O)O)=C(COC(N)=O)CS[C@@H]21                4
6  O=C(N[C@H](CO)[C@H](O)c1ccc([N+](=O)[O-])cc1)C(Cl)Cl               12
7  CC(=O)OCC1=C(C(=O)O)N2C(=O)[C@@H](NC(=O)Cc3cccs3)[C@H]2SC1                6

---

Tested on: Escherichia coli
Experiment: Antibacterial activity against ompF-deficient Escherichia coli AG100 harboring IS186 insertion in lon3 gene and Tn5 insertion in ycgE gene at 37 degC by Etest method
Assay type: functional
// classify: if (MIC < 4 µg/mL) y else n

> print(dat)
                               query.smiles  target.or.test.system  label
1  CO[C@@]1(NC(=O)Cc2cccs2)C(=O)N2C(C(=O)O)=C(COC(N)=O)CS[C@@H]21       Escherichia coli      y
2  CC(=O)OCC1=C(C(=O)O)N2C(=O)[C@@H](NC(=O)Cc3cccs3)[C@H]2SC1       Escherichia coli      n
3  CC1(C)S[C@@H]2[C@H](NC(=O)[C@H](N)c3ccccc3)C(=O)N2[C@H]1C(=O)O       Escherichia coli      y
4  O=C(N[C@H](CO)[C@H](O)c1ccc([N+](=O)[O-])cc1)C(Cl)Cl       Escherichia coli      n
5  C[C@H]1c2cccc(O)c2C(=O)C2=C(O)[C@]3(O)C(=O)C(C(N)=O)=C(O)[C@@H](N(C)C)[C@@H]3[C@@H](O)[C@@H]21.O       Escherichia coli      y
6  CN(C)[C@@H]1C(O)=C(C(N)=O)C(=O)[C@@]2(O)C(O)=C3C(=O)c4c(O)cccc4[C@@](C)(O)[C@H]3C[C@@H]12       Escherichia coli      y

---

Test system: Escherichia coli
Assay: Antibacterial activity against wild-type Escherichia coli AG100 harboring Tn5 insertion in ycgE gene at 26 degC by Etest method
Type: functional
Listing of entries alongside the reported MIC.
attribute measured: MIC

> print(dat)
                               query.smiles  attribute.measured  endpoint.result
1  CN(C)[C@@H]1C(O)=C(C(N)=O)C(=O)[C@@]2(O)C(O)=C3C(=O)c4c(O)cccc4[C@@](C)(O)[C@H]3C[C@@H]12                 MIC        0.5 µg/mL
2  CC1(C)S[C@@H]2[C@H](NC(=O)[C@H](N)c3ccccc3)C(=O)N2[C@H]1C(=O)O                 MIC       0.75 µg/mL
3  O=C(N[C@H](CO)[C@H](O)c1ccc([N+](=O)[O-])cc1)C(Cl)Cl                 MIC          4 µg/mL
4  CO[C@@]1(NC(=O)Cc2cccs2)C(=O)N2C(C(=O)O)=C(COC(N)=O)CS[C@@H]21                 MIC       0.92 µg/mL
5  C[C@H]1c2cccc(O)c2C(=O)C2=C(O)[C@]3(O)C(=O)C(C(N)=O)=C(O)[C@@H](N(C)C)[C@@H]3[C@@H](O)[C@@H]21.O                 MIC       0.83 µg/mL
6           CCn1cc(C(=O)O)c(=O)c2ccc(C)nc21                 MIC        3.7 µg/mL
7  CC(=O)OCC1=C(C(=O)O)N2C(=O)[C@@H](NC(=O)Cc3cccs3)[C@H]2SC1                 MIC        1.3 µg/mL
